System: Mycobacterium tuberculosis
test-details: Antibacterial activity against Mycobacterium bovis BCG infected in human THP1 cells assessed as viral infection at 10 uM after 24 hrs relative to control
Format: functional, variant bovis BCG, THP-1
Please use criterion met whenever Activity is not below 70%, and criterion not met whenever it is.

COc1ccc(OC)c(C(=O)/C=C/c2cccc3ccccc23)c1 :: criterion met
COc1ccc(OC)c(C(=O)/C=C/c2ccc3ccccc3c2)c1 :: criterion met
COc1cc(C(=O)/C=C/c2ccc3ccccc3c2)ccc1O :: criterion met
O=C(/C=C/c1cccc2ccccc12)c1ccccc1O :: criterion met
COc1ccc(C(=O)/C=C/c2ccc3ccccc3c2)cc1OC :: criterion not met
